The reported measurements were obtained from the Human Domainome abundance scans (Beltran et al. 2025).

B1: Poly(rC)-binding protein 1, residues 278 to 350; numbered along this chain, Q15365 (parent)
chain: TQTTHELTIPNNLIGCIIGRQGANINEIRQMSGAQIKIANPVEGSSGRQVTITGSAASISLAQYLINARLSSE

# Variants of: B1
# measurementDescription: abundance fitness (aPCA) (normalised: wild type 0, dead -1); higher = more abundant; growth selection in yeast, the domain comes from the species named
# conditionsUsed: Homo sapiens
Criterion: abundance fitness meeting or surpassing -0.2. Met: 1 (yes). Not met: 0 (no).

As a guide, the following entries are already answered.
INSERT INTO assay_data (alteration, classlabel) VALUES
  ('A56N', '1 (yes)'),
  ('G47Y', '1 (yes)'),
  ('G54Y', '0 (no)'),
  ('I25Q', '0 (no)'),
  ('I52D', '0 (no)');

Task item: Threshold query (abundance fitness >= -0.2) on I38K
Reply: 0 (no)

Task item: Now this one: R48L
Reply: 0 (no)

Task item: Now this one: I17R
Reply: 0 (no)

Task item: Now this one: L13D
Reply: 1 (yes)

Task item: Now this one: N40M
Reply: 1 (yes)

Task item: Now this one: N67H
Reply: 1 (yes)

Task item: Now this one: I59T
Reply: 1 (yes)

Task item: Now this one: I66A
Reply: 0 (no)

Task item: Now this one: T8V
Reply: 1 (yes)
